Listing of entries alongside the reported AUC.
- experiment: AUC in Sprague-Dawley rat at 1 mg/kg, iv
- Type: ADME, organism-based
- Design: dose 1 mg/kg, route intravenous
- conditionsUsed: plasma
Enter your answer as a number in µM·h; do not include the unit.

Endpoint output: AUC of CC(=O)N1N=C(c2cc(F)ccc2F)S[C@@]12c1cc(F)ccc1OC[C@H]2CCN . Value?
0.37

Try the compound CC(=O)N1N=C(c2cc(F)ccc2F)S[C@@]12c1cc(F)c(F)cc1OC[C@H]2CCN
0.8

Try the compound CC(=O)N1N=C(c2cc(F)ccc2F)S[C@@]12c1ccccc1OC[C@H]2CCN
0.8

Please examine the following record next.
Endpoint output: AUC of CC(=O)N1N=C(c2cc(F)ccc2F)S[C@@]12c1cc(F)cc(F)c1OC[C@H]2CCN . Value?
0.8
